System: DMS-114
assay.info: NCI tumour cell line growth inhibition, 48 h
Active and inactive are the calls of the source. No stated cut-off is given here; in the data, active = GI50 up to about 1.1 µM and inactive = higher.
Below, each entry is listed alongside its reported GI50.

Consider the worked cases shown below.
{"columns": ["compound", "experimental.value"],
 "data": [
  ["O=C(NN1C(=O)C(Cl)C1c1cccc([N+](=O)[O-])c1)c1ccccc1O (stereo unspecified)", "> 100 µM (inactive)"],
  ["Nc1c(C(=O)Nc2ccc(C3=NCCN3)cc2)cccc1C(=O)Nc1ccc(C2=NCCN2)cc1", "> 100 µM (inactive)"],
  ["C1CCNCC1.S=C(S)N1CCCCC1", "0.24 µM (active)"],
  ["CC12CC3C(CC1SCC(=O)O2)C3(C)C (stereo unspecified)", "> 100 µM (inactive)"],
  ["O=C(Nc1ccc([N+](=O)[O-])cc1[N+](=O)[O-])C(=O)C(C(=O)c1ccc2ccccc2c1)C1OC(=O)c2ccccc21 (stereo unspecified)", "17.9 µM (inactive)"],
  ["CCCCCCCCCCCC(=O)OCCOCCOCCOCCOCCOCc1ccc(OC)cc1", "> 100 µM (inactive)"],
  ["CC(C)c1cccc(C(C)C)c1N1C(=O)C(=O)C(c2nc3ccccc3o2)C(=O)C1=O", "24.5 µM (inactive)"],
  ["O=C(c1ccccc1)[C@@H]1C[C@H](Sc2ccccc2)c2cc(Cl)ccc2N1", "21.1 µM (inactive)"],
  ["CN(c1ccccc1)c1c(-c2ccccc2)c(=O)oc2c1ccc1occc12", "> 100 µM (inactive)"],
  ["O=C1C(=O)c2cc([N+](=O)[O-])ccc2-c2ccc([N+](=O)[O-])cc21", "0.375 µM (active)"]
]}

Consider now this further compound.
*Q* Requested read-out GI50, target or system DMS-114, entry CC(=O)OC12c3ccccc3C1CCCCCC21OCCCO1 (stereo unspecified)
*A* > 100 µM (inactive)
